target: Thromboxane-A synthase (Rattus norvegicus) (UniProt P49430); test: Inhibition of rat thromboxane A2 synthase evaluated as percent inhibition of thromboxane B2 formation after 24 hr of administration at 10 mg/kg.; type: functional, organism-based; parameters: dose 10 mg/kg
Sequence (P49430 whole entry): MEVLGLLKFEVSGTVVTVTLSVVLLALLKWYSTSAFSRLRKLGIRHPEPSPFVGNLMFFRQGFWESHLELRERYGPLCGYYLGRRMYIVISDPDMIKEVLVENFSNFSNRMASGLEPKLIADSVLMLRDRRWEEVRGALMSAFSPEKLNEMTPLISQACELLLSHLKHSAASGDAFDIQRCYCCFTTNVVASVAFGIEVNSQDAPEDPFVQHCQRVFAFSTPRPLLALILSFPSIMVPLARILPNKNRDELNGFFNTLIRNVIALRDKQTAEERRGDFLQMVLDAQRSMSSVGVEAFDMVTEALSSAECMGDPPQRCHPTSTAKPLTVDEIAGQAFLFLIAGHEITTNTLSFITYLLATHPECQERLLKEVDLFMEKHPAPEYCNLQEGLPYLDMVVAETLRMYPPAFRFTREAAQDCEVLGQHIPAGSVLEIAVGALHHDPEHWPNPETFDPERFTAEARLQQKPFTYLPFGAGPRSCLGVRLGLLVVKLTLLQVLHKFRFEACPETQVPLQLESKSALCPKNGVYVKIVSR
readoutName: inhibition (%)
Give just the number in %; leave the unit off.

Here are 5 molecules together with their reported answers.
molecule="CCC(C1=C(C)C(=O)C(C)=C(C)C1=O)c1cccnc1 (stereo unspecified)" testvalue=75
molecule=CC1=C(CCC(=O)O)C(=O)C(C)=C(Cc2cccnc2)C1=O testvalue=86
molecule="CC1=C(C)C(=O)C(C(C)c2cccnc2)=C(C)C1=O (stereo unspecified)" testvalue=90
molecule="CCCCC(C1=C(C)C(=O)C(C)=C(C)C1=O)c1cccnc1 (stereo unspecified)" testvalue=97
molecule="CCCCCCC(C1=C(C)C(=O)C(C)=C(C)C1=O)c1cccnc1 (stereo unspecified)" testvalue=70

## Task Answer with the recorded inhibition of CC1=C(C)C(=O)C(Cc2cccnc2)=C(C)C1=O only.
## Result 86

## Task Answer with the recorded inhibition of CC1=C(C)C(=O)C(C(CCCCCCC(=O)O)c2cccnc2)=C(C)C1=O (stereo unspecified) only.
## Result 97

## Task Answer with the recorded inhibition of CC1=C(/C=C(\C)C(=O)O)C(=O)C(C)=C(Cc2cccnc2)C1=O only.
## Result 73

* * *

test: physchem; settings: octanol/water
Description: Partition coefficient (logP)
Recorded logP by entry
Give the figure by itself; no unit, no explanation.

Here are 5 compounds together with their reported answers.
compound=CC1=C(/C=C/C(=O)O)C(=O)C(C)=C(Cc2cccnc2)C1=O testvalue=-0.95
compound="CC1=C(C)C(=O)C(C(C)c2cccnc2)=C(C)C1=O (stereo unspecified)" testvalue=2.85
compound="CC1=C(C)C(=O)C(C(CCCCO)c2cccnc2)=C(C)C1=O (stereo unspecified)" testvalue=3.19
compound=CC1=C(C)C(=O)C(/C(=C/CCCCC(=O)O)c2cccnc2)=C(C)C1=O testvalue=1.05
compound="CCC(C1=C(C)C(=O)C(C)=C(C)C1=O)c1cccnc1 (stereo unspecified)" testvalue=3.35

# input for lookup
## Task Answer with the recorded logP of CC1=C(CCC(=O)O)C(=O)C(C)=C(Cc2cccnc2)C1=O only.
## Result -0.65

* * *

Recorded logP by entry
experiment: physchem; details: octanol/water
Give the figure by itself; no unit, no explanation.

## Task Answer with the recorded logP of CC1=C(C)C(=O)C(C(CCCCCO)c2cccnc2)=C(C)C1=O (configuration not stated) only.
## Result 3.69

## Task Answer with the recorded logP of CC1=C(C)C(=O)C(C(c2cccnc2)c2cccc(CCC(=O)O)c2)=C(C)C1=O (configuration not stated) only.
## Result 2.08

## Task Answer with the recorded logP of CCCCCCC(C1=C(C)C(=O)C(C)=C(C)C1=O)c1cccnc1 (configuration not stated) only.
## Result 5.35

* * *

Below are IC50 values measured for Polyunsaturated fatty acid 5-lipoxygenase (Rattus norvegicus, UniProt P12527).

compound="CCCCCCC(C1=C(C)C(=O)C(C)=C(C)C1=O)c1cccnc1 (stereo unspecified)" measuredtarget="Polyunsaturated fatty acid 5-lipoxygenase (Rattus norvegicus, UniProt P12527)" readoutname=IC50 testvalue="73 nM"
compound="CC1=C(C)C(=O)C(C(CCCCCC(=O)O)c2cccnc2)=C(C)C1=O (stereo unspecified)" measuredtarget="Polyunsaturated fatty acid 5-lipoxygenase (Rattus norvegicus, UniProt P12527)" readoutname=IC50 testvalue="9300 nM"
compound="CC1=C(C)C(=O)C(C(CCCCC(=O)O)c2cccnc2)=C(C)C1=O (stereo unspecified)" measuredtarget="Polyunsaturated fatty acid 5-lipoxygenase (Rattus norvegicus, UniProt P12527)" readoutname=IC50 testvalue="60000 nM"
compound=CC1=C(C)C(=O)C(CCCCC#CCCCC#CCO)=C(C)C1=O measuredtarget="Polyunsaturated fatty acid 5-lipoxygenase (Rattus norvegicus, UniProt P12527)" readoutname=IC50 testvalue="90 nM"
compound=CC1=C(Cc2cccnc2)C(=O)c2ccccc2C1=O measuredtarget="Polyunsaturated fatty acid 5-lipoxygenase (Rattus norvegicus, UniProt P12527)" readoutname=IC50 testvalue="82 nM"
compound="CC(=O)OCCCCC(C1=C(C)C(=O)C(C)=C(C)C1=O)c1cccnc1 (stereo unspecified)" measuredtarget="Polyunsaturated fatty acid 5-lipoxygenase (Rattus norvegicus, UniProt P12527)" readoutname=IC50 testvalue="250 nM"
compound="CC1=C(C)C(=O)C(C(CCCCCO)c2cccnc2)=C(C)C1=O (stereo unspecified)" measuredtarget="Polyunsaturated fatty acid 5-lipoxygenase (Rattus norvegicus, UniProt P12527)" readoutname=IC50 testvalue="100 nM"
compound="CC1=C(C)C(=O)C(C(CCCCO)c2cccnc2)=C(C)C1=O (stereo unspecified)" measuredtarget="Polyunsaturated fatty acid 5-lipoxygenase (Rattus norvegicus, UniProt P12527)" readoutname=IC50 testvalue="100 nM"
compound="CC1=C(C)C(=O)C(C(c2cccnc2)c2cccc(CCC(=O)O)c2)=C(C)C1=O (stereo unspecified)" measuredtarget="Polyunsaturated fatty acid 5-lipoxygenase (Rattus norvegicus, UniProt P12527)" readoutname=IC50 testvalue="100000 nM"
compound=CC1=C(C)C(=O)C(Cc2cccnc2)=C(C)C1=O measuredtarget="Polyunsaturated fatty acid 5-lipoxygenase (Rattus norvegicus, UniProt P12527)" readoutname=IC50 testvalue="62 nM"

# input for lookup
## Task GET IC50 | system: Polyunsaturated fatty acid 5-lipoxygenase (Rattus norvegicus, UniProt P12527) | item: CCCCC(C1=C(C)C(=O)C(C)=C(C)C1=O)c1cccnc1 (stereo unspecified)
## Result 830 nM
